Data credit: PubChem BioAssay (NCI)

tested on: SNB-75 CNS; test: NCI-60 one-dose screen, 48 h; conditions: 10 µM unless noted
The panel holds about 83,000 compounds, 20% with a hit somewhere; the sample as a whole holds those more often. The source made the active and inactive calls. How the source made its calls: active means growth percent below 10; inactive means the rest.
The reply should name one outcome from YES for active, NO for inactive

Please review the following examples before continuing.
[
  {
    "compound": "COc1ccc2c(c1)C(=Nc1cc(OC)c(OC)c(OC)c1)C(=O)N2",
    "answer.label": "NO"
  },
  {
    "compound": "NC(=O)c1cc(Cl)ccc1NC(=O)c1ccccc1-c1ccccc1",
    "answer.label": "YES"
  },
  {
    "compound": "CCOC(=O)OCC(=O)[C@@]1(O)CC[C@H]2[C@@H]3CCC4=CC(=O)CC[C@]4(C)[C@H]3[C@@H](O)C[C@@]21C",
    "answer.label": "NO"
  },
  {
    "compound": "Cc1ccc2c(c1)C(=O)/C(=C\\Nc1ccc(C(N)=O)cc1)C(O)O2 (centres undefined)",
    "answer.label": "NO"
  },
  {
    "compound": "COC(=O)Nc1ccc2ccc3c(NC(=O)OC)ccc4ccc1c2c43 (tested in a mixture with another compound)",
    "answer.label": "NO"
  },
  {
    "compound": "CCCCCc1c(C)[nH]c(/C=C2\\N=C(c3ccc[nH]3)C=C2Oc2ccccc2)c1C",
    "answer.label": "YES"
  },
  {
    "compound": "O=C(N/N=C/c1cccc(O)c1)c1ccc(C(F)(F)F)nc1Nc1cccc(C(F)(F)F)c1",
    "answer.label": "YES"
  },
  {
    "compound": "COc1ccc(-c2cc(-c3nnc(SCC(=O)Nc4ccc(C(C)=O)cc4)n3-c3ccccc3)c3ccccc3n2)cc1OC",
    "answer.label": "NO"
  }
]

Continue with the compound presented below.
Prompt: What did the test return for C[C@@H]1CN(c2nc3c(cc2F)c(=O)c(C(=O)O)cn3C(C)(C)C)C[C@H](C)N1 ?
Response: NO

###

tested on: NCI-H322M lung; experiment: NCI-60 one-dose screen, 48 h (100 = growth as untreated, 0 = no growth, -100 = all killed); details: 10 µM unless noted
Compounds without any hit were thinned out: in the full panel of roughly 83,000, 20% have a hit.
observable: growth (%)
Please respond with the number in % and leave the unit unwritten.

Past entries and their recorded results:
[
  {
    "compound": "CCCn1c(N)c(C(=O)CNc2ccc(I)cc2)c(=O)[nH]c1=O",
    "growth (%)": 62
  },
  {
    "compound": "CCCCCN(CCCCC)CCCNc1c2c(nc3ccc(Cl)cc13)CCCC2",
    "growth (%)": 73.8
  },
  {
    "compound": "Cc1nn(-c2ccccc2)cc1/C=C1\\SC(N2CCCCC2)=NC1=O",
    "growth (%)": 100
  },
  {
    "compound": "COc1ccc(-c2cc(-c3cccnc3)nc3sc(C(=O)Nc4ccccc4)c(N)c23)cc1OC",
    "growth (%)": 79.3
  },
  {
    "compound": "C[C@@H]1C[C@@H]([C@@H](CC2CC(=O)NC(=O)C2)OC(=O)CC(=O)c2ccccc2)C(=O)[C@@H](C)C1",
    "growth (%)": -19.5
  }
]

Prompt: Look up and state reported growth for COc1cc(/C=N/OC(=O)Nc2ccccc2)cc(OC)c1OC
Response: 92.2

Prompt: Look up and state reported growth for O=C(c1ccccc1)C(CN1CCCCC1)c1ccccc1 (stereo not given)
Response: 88.3

Prompt: Look up and state reported growth for COc1ccccc1NC(=O)c1sc2nc3c(cc2c1N)C(=O)CCC3
Response: 59.7

Prompt: Look up and state reported growth for CCOc1nc(-c2ccco2)n2nc(-c3ccco3)cc2n1
Response: 116

Prompt: Look up and state reported growth for CCOC(=O)CNC(=O)C1(NC(=O)CNC(=O)OCc2ccccc2)CCCC1
Response: 109

###

System: UO-31 renal
Assay: NCI-60 one-dose screen, 48 h
Details: 10 µM unless noted
Procedure: Growth inhibition of the UO-31 human tumor cell line is measured as a screen for anti-cancer activity. Cells are grown in 96 well plates and exposed to the test compound for 48 hours. Compounds are tested at a single concentration, which is 10^-5 M for most compounds. The reported endpoint is percent growth (GI% or GIPRCNT), where numbers from 0 - 100% represent growth inhibition, and numbers from -100% - 0 represent cell death. For example, a value of 40 represents 60% growth inhibition. […]
The panel holds about 83,000 compounds, 20% with a hit somewhere; the sample as a whole holds those more often. Activity calls are given as the source filed them. The calls were made as follows: active = growth percent below 10; inactive = the rest.
The reply should name one outcome from 1 (yes) for active, 0 (no) for inactive

Please review the following examples before continuing.
[
  {
    "compound": "NS(=O)(=O)c1cc2c(cc1Cl)NC=NS2(=O)=O",
    "answer.label": "0 (no)"
  },
  {
    "compound": "O=[N+]([O-])c1ccc(NS(=O)(=O)c2ccc(Cl)c(Cl)c2)cc1",
    "answer.label": "0 (no)"
  }
]

Prompt: What did the test return for O=C(Nc1nn2c(-c3cc(C(F)(F)F)cc(C(F)(F)F)c3)nnc2s1)C1CCCC1 ?
Response: 1 (yes)

Prompt: What did the test return for COc1cc(/C=C2\CN(S(=O)(=O)c3ccc(C)cc3)C/C(=C\c3cc(CN4CCOCC4)c(O)c(OC)c3)C2=O)cc(CN2CCOCC2)c1O ?
Response: 1 (yes)

Prompt: What did the test return for O=C(/C=C/c1cccc(Nc2ccnc3cc(Cl)ccc23)c1)c1ccc(Cl)cc1 ?
Response: 0 (no)

Prompt: What did the test return for CCCCCCCCCCCCCCCCCC1=NC(C)(CO)CO1 (stereo not given) ?
Response: 0 (no)

Prompt: What did the test return for C[C@@H]1CN(c2nc3c(cc2F)c(=O)c(C(=O)O)cn3C(C)(C)C)C[C@H](C)N1 ?
Response: 0 (no)

###

system: NCI-H23 lung; test: NCI-60 one-dose screen, 48 h; details: 10 µM unless noted
This is part of a sample that, as a whole, favours compounds with a hit. Of some 83,000 tested, about 20% had one in any assay. Activity calls are given as the source filed them. Rule for the calls: active = growth percent below 10; inactive = the rest.
The reply should name one outcome from T (active), F (inactive)

[
  {
    "molecule": "O=c1ncc(-c2ccc(C(F)(F)F)cc2)c(NC2CCCCCC2)[nH]1",
    "answer.label": "F"
  },
  {
    "molecule": "CCOC1Oc2ccccc2C(=O)/C1=N/c1nccs1 (centres undefined)",
    "answer.label": "F"
  },
  {
    "molecule": "O=C(CNC(=O)c1cccc2ccccc12)Nc1ccccc1Oc1cccc(O)c1",
    "answer.label": "F"
  },
  {
    "molecule": "O=C1/C(=C/c2ccccc2O)C(=S)SN1Cc1ccco1",
    "answer.label": "F"
  },
  {
    "molecule": "CCCCc1n(Cc2ccc3ccccc3c2)cc[n+]1Cc1ccc2ccccc2c1",
    "answer.label": "T"
  }
]

Prompt: What did the test return for c1ccc(COc2ccc(Nc3ncnc4c3cnn4-c3ccccc3)cc2)cc1 ?
Response: F

Prompt: What did the test return for COc1cccc(CCN2C(=O)CCC3=C2CCC3=O)c1 ?
Response: F

Prompt: What did the test return for OC(c1ccccc1)C(NCc1ccccc1)c1ccccc1 (centres undefined) ?
Response: F

###

Catalogue of growth readings, one per entry.
tested on: SF-268 CNS; test: NCI-60 one-dose screen, 48 h (100 = growth as untreated, 0 = no growth, -100 = all killed); conditions: 10 µM unless noted
About 83,000 compounds went through this panel and 20% of them were active in at least one assay; those are over-represented in the sample as a whole. Calls of active or inactive are those of the source. The calls were made as follows: active = growth percent below 10; inactive = the rest.

Past entries and their recorded results:
[
  {
    "smiles.code": "CCCCCCCCCCN1CCC(N2CCCCC2)CC1",
    "observable": "growth",
    "result": "39.8% (inactive)"
  },
  {
    "smiles.code": "COc1cc(Cl)cc(-c2nn(-c3cccc(NC(=O)c4cc(C(F)(F)F)cc(C(F)(F)F)c4)c3)cc2-c2ccncc2)c1",
    "observable": "growth",
    "result": "89.2% (inactive)"
  },
  {
    "smiles.code": "O=C(N/N=C/c1cccc(O)c1O)c1ccccc1",
    "observable": "growth",
    "result": "18.4% (inactive)"
  },
  {
    "smiles.code": "CN(C)CCC(=O)Nc1ccc(-n2cc(-c3cccc(NC(=S)Nc4cccc(-c5cn(-c6ccc(NC(=O)CCN(C)C)cc6)nn5)c4)c3)nn2)cc1",
    "observable": "growth",
    "result": "98.6% (inactive)"
  },
  {
    "smiles.code": "CC(C)CNc1nc(N=[N+]=[N-])nc(NCC(C)C)n1",
    "observable": "growth",
    "result": "63.3% [100 µM] (inactive)"
  }
]

Prompt: Look up and state reported growth for O=C1/C(=C\c2coc3ccccc3c2=O)c2ccccc2N1c1c(Cl)cccc1Cl
Response: 32% (inactive)

Prompt: Look up and state reported growth for Cc1sc2nc(NCc3ccccc3)[nH]c(=O)c2c1C
Response: 74.2% (inactive)

Prompt: Look up and state reported growth for c1ccc2nc(Cn3c[n+](Cc4ccc5ccccc5n4)c4ccccc43)ccc2c1
Response: 54.9% (inactive)

Prompt: Look up and state reported growth for COC(=O)[C@H]1[C@H]2C[C@@H]3c4[nH]c5cc(OC)ccc5c4CCN3C[C@H]2C[C@@H](OC(=O)/C=C/c2cc(OC)c(OC)c(OC)c2)[C@@H]1OC
Response: 68.6% (inactive)
